Below, each of the compounds is paired with its reported pIC50 value.
Biological target: MDMX (Homo sapiens, UniProt O15151)
Sequence (O15151 2-134): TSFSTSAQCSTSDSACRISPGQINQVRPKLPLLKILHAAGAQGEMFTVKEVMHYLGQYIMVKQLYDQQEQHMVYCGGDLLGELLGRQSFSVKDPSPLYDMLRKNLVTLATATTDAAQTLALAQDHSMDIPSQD
pIC50: −log10 of the molar value.

compound	pIC50
O=C1N/C(=C\c2c[nH]c3cc(Cl)ccc23)C(=O)N1[C@@H](CO)c1ccc(F)c(F)c1	7.00 to 8.00
O=C1N/C(=C\c2c[nH]c3c(F)c(Cl)ccc23)C(=O)N1C(CO)c1ccc(F)c(F)c1 (stereo not drawn)	7.00 to 8.00
N#Cc1ccc(C(CO)N2C(=O)N/C(=C\c3c[nH]c4c(F)c(Cl)ccc34)C2=O)cc1F (stereo not drawn)	7.00 to 8.00
O=C1N/C(=C\c2c[nH]c3cc(Cl)ccc23)C(=O)N1C(CO)c1ccc(Cl)cc1 (stereo not drawn)	7.00 to 8.00
Cc1c(Cl)ccc2c(/C=C3\NC(=O)N(C(C(=O)NC(COP(=O)(O)O)COP(=O)(O)O)c4ccc(F)c(F)c4)C3=O)c[nH]c12 (stereo not drawn)	7.00 to 8.00
N#Cc1ccc(CN2C(=O)N/C(=C\c3c[nH]c4c(OCF)c(Cl)ccc34)C2=O)cc1	7.00 to 8.00
CSc1c(Cl)ccc2c(/C=C3\NC(=O)N(Cc4ccc(F)c(F)c4)C3=O)c[nH]c12	7.00 to 8.00
N#Cc1ccc(CN2C(=O)N/C(=C\c3c[nH]c4cc(Cl)ccc34)C2=O)cc1F	7.00 to 8.00
N#Cc1ccc(C(C=O)N2C(=O)N/C(=C\c3c[nH]c4c(F)c(Cl)ccc34)C2=O)cc1F (stereo not drawn)	7.00 to 8.00
Cc1c(Cl)ccc2c(/C=C3\NC(=O)N(C(C(=O)NCCO)c4ccc(C#N)c(F)c4)C3=O)c[nH]c12 (stereo not drawn)	> 8.00
Cc1c(Cl)ccc2c(/C=C3\NC(=O)N(C(C(=O)NC(CO)CO)c4ccc(C#N)cc4)C3=O)c[nH]c12 (stereo not drawn)	> 8.00
O=C(NCCO)C(c1ccc(Cl)cc1)N1C(=O)N/C(=C\c2c[nH]c3c(F)c(Cl)ccc23)C1=O (stereo not drawn)	7.00 to 8.00
N#Cc1ccc(C(C(=O)NC(CO)CO)N2C(=O)N/C(=C\c3c[nH]c4c(F)c(Cl)ccc34)C2=O)cc1 (stereo not drawn)	> 8.00
O=C(NC(CO)CO)C(c1ccc(F)c(F)c1)N1C(=O)N/C(=C\c2c[nH]c3cc(Cl)ccc23)C1=O (stereo not drawn)	7.00 to 8.00
O=C1N/C(=C\c2c[nH]c3c(F)c(Cl)ccc23)C(=O)N1Cc1cc(F)c(Cl)cc1F	7.00 to 8.00
O=C1N/C(=C\c2c[nH]c3c(F)c(Cl)ccc23)C(=O)N1Cc1c(F)cc(Cl)cc1F	7.00 to 8.00
O=C1N/C(=C\c2c[nH]c3cc(Cl)ccc23)C(=O)N1[C@@H](COP(=O)(O)O)c1ccc(F)c(F)c1	7.00 to 8.00
N#Cc1ccc([C@H](CO)N2C(=O)N/C(=C\c3c[nH]c4cc(Cl)ccc34)C2=O)cc1	7.00 to 8.00
Cc1c(Cl)ccc2c(/C=C3\NC(=O)N([C@H](CO)c4ccc(C#N)cc4)C3=O)c[nH]c12	7.00 to 8.00
O=C1N/C(=C\c2c[nH]c3c(F)c(Cl)ccc23)C(=O)N1Cc1ccc(Cl)c(F)c1F	7.00 to 8.00
Cc1c(Cl)ccc2c(/C=C3\NC(=O)N(C(CO)c4ccc(Cl)c(F)c4)C3=O)c[nH]c12 (stereo not drawn)	7.00 to 8.00
O=C(NCCO)C(c1ccc(F)c(F)c1)N1C(=O)N/C(=C\c2c[nH]c3c(F)c(Cl)ccc23)C1=O (stereo not drawn)	> 8.00
N#Cc1cc(F)c(CN2C(=O)N/C(=C\c3c[nH]c4c(F)c(Cl)ccc34)C2=O)cc1F	7.00 to 8.00
C#Cc1ccc(CN2C(=O)N/C(=C\c3c[nH]c4c(F)c(Cl)ccc34)C2=O)cc1	7.00 to 8.00
O=C1N/C(=C\c2c[nH]c3cc(Cl)ccc23)C(=O)N1Cc1ccc(Cl)cc1	7.00 to 8.00
Cc1c(Cl)ccc2c(/C=C3\NC(=O)N(C(C(=O)NC45CCC(O)(CC4)CC5)c4ccc(F)c(F)c4)C3=O)c[nH]c12 (stereo not drawn)	> 8.00
Cc1c(Cl)ccc2c(/C=C3\NC(=O)N([C@@H](CO)c4ccc(C#N)cc4)C3=O)c[nH]c12	> 8.00
O=C(NCCO)C(c1ccc(Cl)cc1)N1C(=O)N/C(=C\c2c[nH]c3cc(Cl)ccc23)C1=O (stereo not drawn)	7.00 to 8.00
N#Cc1ccc(C(C(=O)NCCO)N2C(=O)N/C(=C\c3cn(P(=O)(O)O)c4c(F)c(Cl)ccc34)C2=O)cc1F (stereo not drawn)	7.00 to 8.00
N#Cc1ccc(CN2C(=O)N/C(=C\c3c[nH]c4cc(Cl)ccc34)C2=O)cc1	7.00 to 8.00
